This section presents compounds with their documented IC50 values.
- Target Entity: DNA topoisomerase II (Homo sapiens, UniProt P11388+Q02880)
- Measurement Notes: Inhibitory activity against human DNA topoisomerase II
- Assay type: protein assay
Assay Endpoint: IC50 (µM)

[[record]]
compound = "CC(=O)NC1c2cc3ccccc3nc2-c2nc3ccccc3c(=O)n21 (configuration not stated)"
target_entity = "DNA topoisomerase II (Homo sapiens, UniProt P11388+Q02880)"
units_of_measure = "µM"
measured = 25

[[record]]
compound = "Oc1nc(-c2cnc3ccccc3c2)nc2ccccc12"
target_entity = "DNA topoisomerase II (Homo sapiens, UniProt P11388+Q02880)"
units_of_measure = "µM"
measured = 25

[[record]]
compound = "O=C(c1cnc2ccccc2c1)c1nc(O)c2ccccc2n1"
target_entity = "DNA topoisomerase II (Homo sapiens, UniProt P11388+Q02880)"
units_of_measure = "µM"
measured = 25

[[record]]
compound = "O=c1c2ccccc2nc2n1Cc1cc3ccccc3nc1-2"
target_entity = "DNA topoisomerase II (Homo sapiens, UniProt P11388+Q02880)"
units_of_measure = "µM"
measured = 28.5

[[record]]
compound = "CC(C(C)N1CC(=O)NC(=O)C1)N1CC(=O)NC(=O)C1 (configuration not stated)"
target_entity = "DNA topoisomerase II (Homo sapiens, UniProt P11388+Q02880)"
units_of_measure = "µM"
measured = 13.9

[[record]]
compound = "COC1c2cc3ccccc3nc2-c2nc3ccccc3c(=O)n21 (configuration not stated)"
target_entity = "DNA topoisomerase II (Homo sapiens, UniProt P11388+Q02880)"
units_of_measure = "µM"
measured = 25

[[record]]
compound = "O=c1c2ccccc2nc2n1C(O)c1cc3ccccc3nc1-2 (configuration not stated)"
target_entity = "DNA topoisomerase II (Homo sapiens, UniProt P11388+Q02880)"
units_of_measure = "µM"
measured = 25

